Source listed as ChEMBL document CHEMBL4002604.

System: P19
test-protocol: Cytotoxicity against undifferentiated mouse P19 cells assessed as cell mass at 1 to 100 uM after 48 hrs by SRB assay relative to control
Type: functional
# if measured Activity < 90%: label 1  # else: label 0

> print(dat)
                                   compound  label.value
1  O=C(c1ccc2c(c1)C(=O)N(c1cccc(O)c1)C2=O)c1ccc2c(c1)C(=O)N(c1cccc(O)c1)C2=O      label 1
2  O=C(c1ccc2c(c1)C(=O)N(c1c[nH]c(=O)[nH]c1=O)C2=O)c1ccc2c(c1)C(=O)N(c1c[nH]c(=O)[nH]c1=O)C2=O      label 0
3  O=C(c1ccc2c(c1)C(=O)N(c1nc[nH]n1)C2=O)c1ccc2c(c1)C(=O)N(c1nc[nH]n1)C2=O      label 1
4  O=C(c1ccc2c(c1)C(=O)N(CCCO)C2=O)c1ccc2c(c1)C(=O)N(CCCO)C2=O      label 0
5  O=C(c1ccc2c(c1)C(=O)N(c1ccccc1O)C2=O)c1ccc2c(c1)C(=O)N(c1ccccc1O)C2=O      label 0
6  OC[C@H]1OC(O)C[C@@H](O)[C@@H]1O (stereo partly drawn)      label 0
7  O=C(c1ccc2c(c1)C(=O)N(c1ccc(O)cc1)C2=O)c1ccc2c(c1)C(=O)N(c1ccc(O)cc1)C2=O      label 1
